src = patent US20030054360

Molecular target: P-Selectin (Homo sapiens)
Sequence: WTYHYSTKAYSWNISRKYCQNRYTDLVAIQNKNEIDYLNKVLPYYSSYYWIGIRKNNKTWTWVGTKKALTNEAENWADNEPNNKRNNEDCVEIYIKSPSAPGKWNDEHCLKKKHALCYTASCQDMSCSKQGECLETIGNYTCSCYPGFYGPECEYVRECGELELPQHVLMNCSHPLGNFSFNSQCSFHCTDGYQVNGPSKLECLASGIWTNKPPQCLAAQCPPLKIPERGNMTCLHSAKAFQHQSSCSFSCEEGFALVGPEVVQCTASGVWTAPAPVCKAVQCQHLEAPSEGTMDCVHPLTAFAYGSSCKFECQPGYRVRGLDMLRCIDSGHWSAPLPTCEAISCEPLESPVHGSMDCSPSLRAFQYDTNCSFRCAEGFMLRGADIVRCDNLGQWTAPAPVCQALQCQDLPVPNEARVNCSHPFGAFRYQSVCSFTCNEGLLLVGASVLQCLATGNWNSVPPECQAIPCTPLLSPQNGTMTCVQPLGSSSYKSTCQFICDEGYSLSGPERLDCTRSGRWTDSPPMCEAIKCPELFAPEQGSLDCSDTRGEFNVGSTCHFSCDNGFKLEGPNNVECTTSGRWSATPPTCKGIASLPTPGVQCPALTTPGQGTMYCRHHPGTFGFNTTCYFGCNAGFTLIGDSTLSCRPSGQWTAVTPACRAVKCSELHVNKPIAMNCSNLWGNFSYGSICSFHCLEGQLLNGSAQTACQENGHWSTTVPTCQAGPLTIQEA
Assay: filter
Details: 5-BrdU replaces T; apparent photocrosslink KD; plateau 30%; rate 1.86
pKd: −log10 of the molar value.
recorded.metric: pKd

>>> df
                             sequence_chain  reported_measurement
0  ATATATATGGGAGGACGATGCGGGCTCAATAACCTGAATCTACCTTTCCCTAGCAAAGGTCTGCAGACGACGAGCGGGAAAAAAAA [P-selectin pool 014 clone 24]                  8.68

----------
Target: human neutrophil elastase (hNE) (Homo sapiens)
Sequence: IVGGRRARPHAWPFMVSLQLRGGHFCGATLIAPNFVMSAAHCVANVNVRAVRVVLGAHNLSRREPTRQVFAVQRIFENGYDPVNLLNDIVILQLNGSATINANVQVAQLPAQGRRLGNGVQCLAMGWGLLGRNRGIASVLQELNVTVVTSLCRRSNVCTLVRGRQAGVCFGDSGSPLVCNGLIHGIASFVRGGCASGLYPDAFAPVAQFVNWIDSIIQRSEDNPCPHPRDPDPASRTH
Assay: filter
Settings: 5-BrdU replaces T; apparent photocrosslink KD; plateau 27%; rate 0.14
pKd: −log10 of the molar value.
recorded.metric: pKd

                             sequence_chain  recorded_metric  reported_measurement
0  ATATATATGGGAGGACGATGCGGCAACCCACCACTCTATCTTTCCCATAACTGCAGACGACGAGCGGGAAAAAAAA [hNE pool 2 clone 43]              pKd                  7.21

----------
target: Angiogenin (UniProt P03950); experiment: filter; settings: 5-BrdU replaces T; apparent photocrosslink KD; plateau 28%; rate 2.6
Sequence (P03950 25-147): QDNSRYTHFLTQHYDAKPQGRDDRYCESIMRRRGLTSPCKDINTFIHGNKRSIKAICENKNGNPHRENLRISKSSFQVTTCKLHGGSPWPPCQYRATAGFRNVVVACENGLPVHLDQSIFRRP
pKd: −log10 of the molar value.
recorded.metric: pKd

>>> df
                             sequence_chain                  test_target  reported_measurement
0  ATATATATGGGAGGACGATGCGGGCCAAATGGACTTTTCGCCACGAACTTACGACGGTGTTGCCAGACGACGAGCGGGAAAAAAAA [Angiogenin pool 011 clone 16]  Angiogenin (UniProt P03950)                  9.52
